Source listed as paper PMC11313193.

tested on: SKOV-3 ovarian cancer cells; assay: Cytotoxicity (Neutral Red), SKOV-3 cells; format: cell-based, human; settings: Homo sapiens, SK-OV-3; 24 h exposure, Neutral Red; read-out: IC50 SKOV-3
pIC50 for assorted compounds
Remember, pIC50 is on a log scale: it is -log10 of the molar concentration.

Solved entries (count: 5):
C=CCSCC=C [Allyl sulfide]; 3.61
O=C(O)c1cc(O)c(O)c(O)c1; 3.94
C=CCSSSCC=C [Diallyl trisulfide, diallyl trisulfide]; 3.81
O=C(O)/C=C/c1ccc(O)c(O)c1; 2.88
C=CCS[S+]([O-])CC=C (stereo not drawn); 3.63

We now examine a further compound.
What value of measured pIC50 is listed for C=CCSCC(N)C(=O)O (stereo in doubt) ?
3.38

====

Test system: SKOV-3 ovarian cancer cells
Assay: Cytotoxicity (Neutral Red), SKOV-3 cells
Assay type: cell-based, human
Settings: 24 h exposure; p < 0.05
Protocol: The PEO1 cells, SKOV-3 cells, and MRC-5 cells were grown at 37 °C and 5% CO2 in RPMI + GlutaMAX medium, McCoy’s 5A medium, and the DMEM + GlutaMAX medium, respectively. […] The cell viability was evaluated using the Trypan Blue exclusion test. In the cytotoxicity experiments, cells were grown in wells of sterile 96-well plates. […] The plates were shaken at 700 rpm for 20 min and absorbance was read at a wavelength of 540 nm against 620 nm.
metric: Concentration at which viability of SKOV-3 cells was lowered

C=CCSCC=C [Allyl sulfide]; 200 to 500 µM
C=CCSSSCC=C [Diallyl trisulfide, diallyl trisulfide]; 50 µM
O=C(O)c1cc(O)c(O)c(O)c1; 200 to 1000 µM

What value of measured Concentration at which viability of SKOV-3 cells was lowered is listed for O=c1c(O)c(-c2ccc(O)c(O)c2)oc2cc(O)cc(O)c12 ?
75 to 200 µM
